- testMethodNotes: IV and PO pharmacokinetics in mice
- Type: in vivo, C57BL/6 male mice
- conditionDescription: male, C57BL/6, 10 mg/kg; mouse plasma, PO, 10 mpk; read-out: C0/Cmax
endpointLabel: Cmax (ng/mL)
A number alone suffices; assume ng/mL.

smilesRepr: COc1cccc(NC(=O)Nc2nc3ccc(C(=O)N4CCOCC4)cc3s2)c1
Cmax / ng/mL: 804

Enquiry: Looking for the measured Cmax of `N#Cc1cccc(NC(=O)Nc2nc3ccc(C(=O)N4CCOCC4)cc3s2)c1` , can you help?
Return: 97.5

---

Quick list: Papp A→B at 2 h, 2 µM per entry.
- Test system: P-gp (MDR1)
- testMethodNotes: MDR1-MDCKII permeability assay
- Assay type: in vitro ADME
- conditionDescription: dog, MDCK-MDR1, pH 7.4; MDR1-MDCKII, 2 µM, 2.0 h, n = 2; read-out: Apical to basal (AP-BL) Papp
A number alone suffices; assume ×10⁻⁶ cm/s.

smilesRepr: N#Cc1cccc(NC(=O)Nc2nc3ccc(C(=O)N4CCOCC4)cc3s2)c1
Papp A→B at 2 h, 2 µM [×10⁻⁶ cm/s]: 0.4

Note: attention shifts to another entry.
Enquiry: Looking for the measured Papp A→B at 2 h, 2 µM of `COc1cccc(NC(=O)Nc2nc3ccc(C(=O)N4CCOCC4)cc3s2)c1` , can you help?
Return: 0.5

---

- testMethodNotes: IV and PO pharmacokinetics in mice
- Type: in vivo, C57BL/6 male mice
- conditionDescription: male, C57BL/6, mouse, plasma, oral, 10 mg/kg, mouse, PO 10 mpk vs IV 1 mpk; read-out: %F (oral bioavailability)
endpointLabel: bioavailability (%)
A number alone suffices; assume %.

Enquiry: Looking for the measured bioavailability of N#Cc1cccc(NC(=O)Nc2nc3ccc(C(=O)N4CCOCC4)cc3s2)c1 [compound 0043] , can you help?
Return: 5

---

- testMethodNotes: IV and PO pharmacokinetics in mice
- Assay type: in vivo, C57BL/6 male mice
- conditionDescription: male, C57BL/6, plasma, 1 mg/kg; mouse, IV, 1 mpk; read-out: Vss
endpointLabel: Vd (L/kg)
A number alone suffices; assume L/kg.

smilesRepr: N#Cc1cccc(NC(=O)Nc2nc3ccc(C(=O)N4CCOCC4)cc3s2)c1
Vd, L/kg: 0.77

Note: attention shifts to another entry.
Enquiry: Looking for the measured Vd of `COc1cccc(NC(=O)Nc2nc3ccc(C(=O)N4CCOCC4)cc3s2)c1` , can you help?
Return: 1.34

---

- Tested on: P-gp (MDR1)
- testMethodNotes: MDR1-MDCKII permeability assay
- Type: in vitro ADME
- conditionDescription: dog, MDCK-MDR1, pH 7.4; MDR1-MDCKII, 2 µM, 2.0 h, n = 2
Quick list: efflux ratio at 2 h, 2 µM per entry.

smilesRepr: COc1cccc(NC(=O)Nc2nc3ccc(C(=O)N4CCOCC4)cc3s2)c1
testTarget: P-gp (MDR1)
efflux ratio at 2 h, 2 µM: 78

Enquiry: Looking for the measured efflux ratio at 2 h, 2 µM of `N#Cc1cccc(NC(=O)Nc2nc3ccc(C(=O)N4CCOCC4)cc3s2)c1` , can you help?
Return: 114

---

- Test system: P-gp (MDR1)
- testMethodNotes: MDR1-MDCKII permeability assay
- Format: in vitro ADME
- conditionDescription: dog, MDCK-MDR1, pH 7.4; MDR1-MDCKII, 2 µM, 2.0 h, n = 2; read-out: Basal to apical (BL-AP) Papp
- Method: MDR1‐MDCKII assay was processed by Sai Life Sciences Pvt. […] Permeability was measured in duplicate (n = 2) in both A→B and B→A directions. […] Test and reference compounds were quantified by LC‐MS/MS analysis based on the peak area ratio of analyte/internal standard (IS). The efflux ratio of each compound was calculated. […] After the transport assay, Lucifer yellow fluorescence rejection assay was performed to confirm the integrity of the cell monolayer.
Quick list: Papp B→A at 2 h, 2 µM per entry.
A number alone suffices; assume ×10⁻⁶ cm/s.

compound: COc1cccc(NC(=O)Nc2nc3ccc(C(=O)N4CCOCC4)cc3s2)c1 [compound 0152]
Papp B→A at 2 h, 2 µM / ×10⁻⁶ cm/s: 37.4

Enquiry: Looking for the measured Papp B→A at 2 h, 2 µM of N#Cc1cccc(NC(=O)Nc2nc3ccc(C(=O)N4CCOCC4)cc3s2)c1 [compound 0043] , can you help?
Return: 42.6
